test: amyloid nucleation score (Sup35N fusion, yeast selection) (log enrichment); library NNK2; higher = more nucleation; inactive = no reads after selection;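 note: zero at mode of non-aggregating sequences after 7 days selection at 30°C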
If the reported amyloid nucleation score equals or exceeds 0.03, assign MET. If not, assign NOT MET.

# SUBSTANCE, LABEL
records = [
    ("LDVIDGYWTGRMTSSFSWMN", "MET"),
    ("ADHVDAYSFRDNDLSYQVYL", "MET"),
    ("ILVYASWLGYHLDICSGFRS", "MET"),
    ("LIVYKLV", "NOT MET"),
    ("CRNQGVCDAGQSLLN", "MET"),
    ("MLKSYDKKWWGTMAWSNSSV", "MET"),
    ("REDGSPVGLLGGDHWVDFAQ", "MET"),
    ("HWLNLCP", "NOT MET"),
    ("CGRTDNWGNDRNASRRHGGL", "MET"),
    ("CVMGPAT", "MET"),
    ("YSSCLCLQCTRMQTPMVQFL", "MET"),
    ("DRLVGVTLYSTVYSDYSSSG", "NOT MET"),
    ("LSEGCSLSTSVSMT", "NOT MET"),
    ("AFGNNDDLGARRYGMATPGR", "MET"),
]

* * *

assay: amyloid nucleation score (Sup35N fusion, yeast selection) (log enrichment); library NNK3; higher = more nucleation; inactive = no reads after selection

# SUBSTANCE, amyloid nucleation score
records = [
    ("NCVPSCSAAFKSISRQPHGS", 0.115),
    ("AMQAAPVCRRYAVVTTHFDH", "inactive"),
    ("LELDCASNRLSPNGIYMYFW", 0.123),
    ("YRGVDLYVGVKLIRTYRVVR", "inactive"),
    ("SEHFRN", "inactive"),
    ("PCHPRGKRENTMRAWGRSCE", "inactive"),
    ("HKWSAAIEIGSVKDNRIKLL", "inactive"),
    ("AFMVKYSSVLYVCNLALGRA", "inactive"),
    ("SFSMIRE", "inactive"),
    ("NLRHCGCSALGTMTDVNVRG", 0.692),
    ("IREYCFH", "inactive"),
    ("LRTSVFRVLVNSILVKNLIS", "inactive"),
    ("TVYYTLFATIWMLGVFFLNN", "inactive"),
    ("VNNVQCLYDAVREDSRWYWG", "inactive"),
    ("NAAGCSVSGCIG", "inactive"),
    ("HNASGCWWDSALPITFRRLG", "inactive"),
    ("LWKMILGTFMTQMCL", "inactive"),
]

* * *

assay: amyloid nucleation score (Sup35N fusion, yeast selection) (log enrichment); library NNK3; higher = more nucleation; inactive = no reads after selection
READOUT LABEL: amyloid nucleation score

# SUBSTANCE, READOUT LABEL, VALUE MEASURED
records = [
    ("RYIFNQANSMVQYRFVYDVR", "amyloid nucleation score", 1.72),
    ("ALYWTEYQ", "amyloid nucleation score", "inactive"),
    ("TYNRHSFLA", "amyloid nucleation score", "inactive"),
    ("GMPKSWYMPVRMMQASSSAF", "amyloid nucleation score", "inactive"),
    ("YYLCLYLSPLLL", "amyloid nucleation score", 1.28),
    ("IHFLNWSARM", "amyloid nucleation score", "inactive"),
    ("GYILVLYADRAKICDKFYVG", "amyloid nucleation score", 2.27),
    ("WQQAYRDRTSRSYWQPICAT", "amyloid nucleation score", "inactive"),
    ("YQYCSISKHVFEWYGTSWMG", "amyloid nucleation score", "inactive"),
    ("LTIVAYVVATYSFCWWISVG", "amyloid nucleation score", "inactive"),
    ("PEFMTVLDVTMSYWWESCLG", "amyloid nucleation score", "inactive"),
    ("DLMLWKNFSLFTRESRGFAN", "amyloid nucleation score", "inactive"),
    ("FNSYGKLWYFESKDRVYACD", "amyloid nucleation score", -0.462),
    ("RHSLMRDYYNFLMLDCTE", "amyloid nucleation score", "inactive"),
    ("LTYTHLCEPSEFR", "amyloid nucleation score", "inactive"),
    ("ACLLKSYFSRYNEKPTCYVT", "amyloid nucleation score", "inactive"),
    ("TCCLIF", "amyloid nucleation score", 1.87),
    ("ILVGNFSILWY", "amyloid nucleation score", "inactive"),
]

* * *

assay: amyloid nucleation score (Sup35N fusion, yeast selection) (log enrichment); library NNK2; higher = more nucleation; inactive = no reads after selection
Record 1 whenever amyloid nucleation score is at 0.2 or higher; record -1 when lower.

# SUBSTANCE, LABEL
data = [
    ("NWWLTHVHLVSFYVVSWGWV", 1),
    ("SDGEKFG", -1),
    ("LNRCLDHRWIPKCVC", 1),
    ("DISVYSDFVLSFICADVHPS", 1),
    ("CTMLLGSESEGWSLQIFVLL", -1),
    ("KLRIVMMNRIFTSNL", 1),
    ("FSYLAI", -1),
    ("TDCRFIIVYMVIGSFLYTRV", -1),
    ("LFSILAGS", 1),
    ("SLPFTLLNKSAHWNSLWFPG", -1),
    ("ASYLCFPNNVVLSLHNHVFS", 1),
    ("DFSFVANCSDYLLNILFKGE", -1),
    ("VTSLHSYSMMFPPMWMSNQS", 1),
    ("FEFTTCQGDRRSCFDGWGGN", 1),
    ("FLKYSDKQHAVNVGLKVTAQ", -1),
    ("NCKWCNT", 1),
    ("SRWKGSRF", 1),
    ("RRVTRKVVGPRNYAYEKYFW", 1),
    ("KFTSCAVNNDIMLLLVRVGF", -1),
    ("GRVMMEC", 1),
    ("RIMIIGKYVSRMVFGDSFWG", 1),
    ("NTCRSYNRNVIIRARPRPGL", 1),
    ("TNDHQFCESNMRVMSEGIGP", -1),
    ("MNEFCRTGCRTFRQRSSCCR", 1),
    ("GTILPCNWNNLLYWVVGENA", 1),
    ("KALQNSDGVGTRNLQTRHGY", 1),
    ("PTRDKVATEGHGNGLIYNRF", 1),
    ("DTGNPVVWKRTVNCLSQVLW", 1),
    ("ICCTSSANNSTPPQSCWTPK", 1),
    ("EVGVEGEIF", -1),
    ("DESWETIFLYKCRGQNW", -1),
    ("GYQRNYSFAVSMEARSVVPG", 1),
    ("MLLRHNEPVLLRAHYYRESA", -1),
    ("LNWIIVCLNN", 1),
    ("FDYVMFSDIVWSYTKNDALM", -1),
    ("CRKRGH", 1),
    ("ITIQKIVEYISLNPEDT", 1),
    ("FSKHCYIIMYDISRSKTSIF", -1),
    ("CPSWSSLLISPYYYSSVSHK", -1),
    ("IEKSMLVVLGINVRVSMGVG", -1),
    ("LAYCGYIHDLFGGILIKLDG", -1),
    ("LGTSWHHRAKE", 1),
    ("VRFHVWDKGHRMI", 1),
    ("FCCFRVYVDMENLSNSALTL", 1),
    ("VDETNAKL", 1),
    ("TVPRFEKHFRAVVNLLGRND", 1),
    ("FNGVIFNGSSVNYYPFAHSF", 1),
    ("CYWERWAS", -1),
    ("SVECKCYYRL", 1),
    ("IGNAMHSLHSIHVRCRHSLE", 1),
    ("HFVNMHH", -1),
    ("SHLCHLGGSRRTQRVVEVSS", 1),
    ("LCYHLYTRVITCFLLIDLVC", -1),
    ("AETTFNIENDKTYIIYDCAE", -1),
    ("PCCRGRRSSLGRAIKGAEAK", -1),
    ("NCFNLEKGQMCPDWNGSSYT", -1),
    ("LFVPGLNR", -1),
    ("LLACVSVMFLRSSLINLDRL", -1),
    ("YPFILVVTIEYACLVRRLGV", -1),
    ("MSLVSRNSTSKHLNIVFSLI", 1),
    ("VISEGRHKSFSL", -1),
    ("WPTSSTYQHWFD", 1),
]

* * *

assay: amyloid nucleation score (Sup35N fusion, yeast selection) (log enrichment); library NNK2; higher = more nucleation; inactive = no reads after selection
// bucketize amyloid nucleation score: LOW = under -0.07, MEDIUM = from -0.07 up to 2, HIGH = 2 and over

# SUBSTANCE, LABEL
data = [
    ("NAYFMLEILRTKWTQDSTER", "LOW"),
    ("FYCSNSKFW", "HIGH"),
    ("MCGNWLD", "HIGH"),
    ("KNIVVTSPVLMNST", "LOW"),
    ("LLYYPIDGQGDGWLWCVYRV", "MEDIUM"),
    ("TGCNFHGRRFRCGYNGLGNP", "LOW"),
    ("TVFFIVPLCSLLDKVNSLGA", "HIGH"),
    ("NNVFELCERSKLPIKKFHDV", "LOW"),
    ("LLVRFVLVATRRTLSTV", "MEDIUM"),
    ("TNPASAGTYSRSYEFCSLRL", "MEDIUM"),
    ("QKACWNPGQRLLVTDLHYQP", "MEDIUM"),
    ("CSRIHMRIARSSLF", "MEDIUM"),
    ("WKVCLVYDKTFWHVEVEGES", "MEDIUM"),
    ("ATGSYSMITLDIFQSNCSDA", "HIGH"),
    ("NCVTHFMFNLDWSLWFEVCF", "LOW"),
]
